Target: Proto-oncogene tyrosine-protein kinase receptor Ret (Homo sapiens);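 further: each listed value is an averaged inhibition figure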
Settings: at 1 µM
observation_type: inhibition

Problem: Which inhibition is reported for this compound? `CCn1c(-c2nonc2N)nc2cnc(Oc3cccc(NC(=O)c4ccc(OCCN5CCOCC5)cc4)c3)cc21`
Result: 10.4%

Problem: Entry under review: `NC(=O)c1cccc(Nc2nccc(Nc3cccc4[nH]ncc34)n2)c1` . Reported inhibition?
Result: 82.1%

Problem: inhibition lookup needed for `Cc1ccc(C(=O)NC2CCCCC2)cc1-c1ccc(C(=O)NCC2CC2)cc1` , thanks.
Result: 7.84%

Problem: State the recorded inhibition for this entry: `c1cnn2ncc(-c3ccnc(Nc4ccc5c(c4)OCCO5)n3)c2c1`
Result: 21.9%

Problem: If you can, please state the reported inhibition value of `CCn1c(-c2nonc2N)nc2c(C#CC(C)(C)O)nc(CN3CCCC3)cc21` .
Result: 9.99%

More entries:
Problem: Which measured inhibition value corresponds to `CCCN1CCC=C(c2ccc(Nc3nc(Nc4ccccc4C(N)=O)c4cc[nH]c4n3)c(C)c2)C1` ?
Result: 24.3%

Problem: Which inhibition value is on record for `COc1ccccc1Nc1ncc(-c2ccccc2)o1` ?
Result: 6.88%

* * *

Target: Mitogen-activated protein kinase 12 (Homo sapiens)
Details: at 0.1 µM
Description: GSK_PKIS: P38gamma mean inhibition at 0.1 uM [Nanosyn]
observation_type: inhibition (%)
Expressed in %, but write only the number.

Problem: # input molecule: `O=C1NC(=O)C(c2ccc(Cl)cc2)=C1Nc1ccc(Cl)c(C(=O)O)c1` ; wanted: its inhibition
Result: -2.36

Problem: For the molecule shown here, `Nc1ncnc2occ(-c3ccc(NC(=O)Nc4cc(C(F)(F)F)cc(C(F)(F)F)c4)cc3)c12` , give the reported inhibition.
Result: -0.95

Problem: What value of inhibition has been reported for the following molecule? COc1ccc2cc(-c3c(-c4ccncc4)nc(-c4ccc([S+](C)[O-])cc4)n3C)ccc2c1 (stereo not drawn)
Result: 2.2

Continuing:
Problem: Value lookup for inhibition; key = CC1=C(C(=O)Nc2ccc3[nH]ncc3c2)C(c2ccc(Cl)c(Cl)c2)CC(=O)N1 (stereo not drawn)
Result: -0.46

Problem: What value of measured inhibition is listed for `CCCN1CCC=C(c2ccc(Nc3nc(Nc4ccccc4C(N)=O)c4cc[nH]c4n3)c(C)c2)C1` ?
Result: 3.52

Problem: Data request, read-out inhibition, for `O=C1NC(=O)C(c2ccccc2Cl)=C1Nc1cccc(O)c1`
Result: 5.33

Problem: Look up inhibition for this molecule: `CS(=O)(=O)CCNCc1ccc(-c2ccc3ncnc(Nc4ccc(OCc5ccccc5)c(Cl)c4)c3c2)o1`
Result: 1.33

Problem: Fill blank: measured inhibition of the molecule `O=C1Nc2ccc(C(=O)c3ccco3)cc2C1=Cc1cc(Cl)c(O)c(Cl)c1` is ____.
Result: 0.31

* * *

System: Tyrosine-protein kinase ABL1 (Homo sapiens), P00519 [Q252H]
Conditions: at 0.1 µM
observation_type: inhibition (%)
State just the number; it will be interpreted in %.

Worked cases, answers included:
Problem: # get_value(readout='inhibition', item= `COc1cc2ncn(-c3cc(OCc4ccccc4Cl)c(C(N)=O)s3)c2cc1OC` )
Result: 5.23

Problem: inhibition for `CCn1c(-c2nonc2N)nc2c(C#CC(C)(C)O)nc(OC[C@@H](N)c3ccccc3)cc21` ?
Result: 0.61

Problem: What measured inhibition goes with `NC(=O)c1ccc(-c2nc(-c3ccccn3)c(-c3ccc4c(c3)OCO4)[nH]2)cc1` ?
Result: 0.7

Others:
Problem: Item `COc1ccc(COc2ccc(Cc3cnc(N)nc3N)cc2OC)cc1` has what recorded inhibition?
Result: 2.23

Problem: Would you mind telling me what inhibition value was observed for `CCn1c(-c2nonc2N)nc2cnc(Oc3cccc(NC(=O)c4ccc(OCCN5CCOCC5)cc4)c3)cc21` ?
Result: 4.73

Problem: Can you share its inhibition? I mean this compound: `CCn1c(-c2nonc2N)nc2cncc(C(=O)N3CCNCC3)c21`
Result: 3.41

Problem: Given the compound `O=C1NC(=O)C(c2cccc(Cl)c2)=C1Nc1ccc(O)c(Cl)c1` , what is its reported inhibition?
Result: -0.15

Problem: Name the reported inhibition value associated with the compound `NS(=O)(=O)c1ccc(N/N=C2\C(=O)Nc3ccc(C(=O)NCCc4c[nH]cn4)cc32)cc1`
Result: 5.47

Problem: Using the record for `COc1cccc(-n2ncc3c(N/N=C/c4cccc(F)c4)ncnc32)c1` , report its inhibition.
Result: 60.9

Problem: Recorded inhibition for `COc1cc2ncn(-c3cc(O[C@H](C)c4ccccc4Cl)c(C(N)=O)s3)c2cc1OC` , please?
Result: 9.97

Problem: I'd like to know its inhibition. The compound in question is `Nc1ncnc2occ(-c3ccc(NC(=O)Nc4cccc(C(F)(F)F)c4)cc3)c12`
Result: 54.2

Problem: Entry `Cc1nnc(-c2ccc(C)c(-c3ccc(C(=O)Nc4cccc(C#N)c4)cc3)c2)o1` : reported inhibition = ?
Result: 3.04

* * *

Target: Protein kinase C gamma type (Homo sapiens) (UniProt P05129)
Details: at 0.1 µM
observation_type: inhibition (%)
Field format: number, assumed %, no unit text.

Completed entries (count: 4):
Problem: Protein kinase C gamma type (Homo sapiens) (UniProt P05129) / inhibition / `COc1cc(C)c(NC(=O)CN(C)C)cc1Nc1nc(Nc2cccc(F)c2C(N)=O)c2cc[nH]c2n1` : value?
Result: 3.92

Problem: Hello, I am looking for reported inhibition with Protein kinase C gamma type (Homo sapiens) (UniProt P05129) for `Fc1cccc(COc2ccc(Nc3ncnc4sc(-c5cccs5)cc34)cc2Cl)c1` . Could you help?
Result: -0.34

Problem: Protein kinase C gamma type (Homo sapiens) (UniProt P05129) / inhibition / `Fc1cccc(COc2ccc(Nc3ncnc4cc(-c5ccc[nH]5)sc34)cc2Cl)c1` : value?
Result: 3.21

Problem: Request body: readout inhibition, system Protein kinase C gamma type (Homo sapiens) (UniProt P05129), query `CCn1c(-c2nonc2N)nc2cnc(Oc3cccc(NC(=O)c4ccc(OCCN5CCOCC5)cc4)c3)cc21` . Return the value.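 Further: values are mean percent inhibition of PKC gamma.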
Result: 13.9

# evaluate next
Problem: Fill in the recorded inhibition for this compound, with Protein kinase C gamma type (Homo sapiens) (UniProt P05129) as test system: `CS(=O)(=O)CCNCc1nc(-c2ccc3ncnc(Nc4ccc(F)c(Cl)c4)c3c2)cs1`
Result: 2.71

* * *

Biological target: MAP/microtubule affinity-regulating kinase 4 (Homo sapiens) (UniProt Q96L34);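 further: values are averaged percent inhibition of MARK4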
Sequence (Q96L34 whole entry): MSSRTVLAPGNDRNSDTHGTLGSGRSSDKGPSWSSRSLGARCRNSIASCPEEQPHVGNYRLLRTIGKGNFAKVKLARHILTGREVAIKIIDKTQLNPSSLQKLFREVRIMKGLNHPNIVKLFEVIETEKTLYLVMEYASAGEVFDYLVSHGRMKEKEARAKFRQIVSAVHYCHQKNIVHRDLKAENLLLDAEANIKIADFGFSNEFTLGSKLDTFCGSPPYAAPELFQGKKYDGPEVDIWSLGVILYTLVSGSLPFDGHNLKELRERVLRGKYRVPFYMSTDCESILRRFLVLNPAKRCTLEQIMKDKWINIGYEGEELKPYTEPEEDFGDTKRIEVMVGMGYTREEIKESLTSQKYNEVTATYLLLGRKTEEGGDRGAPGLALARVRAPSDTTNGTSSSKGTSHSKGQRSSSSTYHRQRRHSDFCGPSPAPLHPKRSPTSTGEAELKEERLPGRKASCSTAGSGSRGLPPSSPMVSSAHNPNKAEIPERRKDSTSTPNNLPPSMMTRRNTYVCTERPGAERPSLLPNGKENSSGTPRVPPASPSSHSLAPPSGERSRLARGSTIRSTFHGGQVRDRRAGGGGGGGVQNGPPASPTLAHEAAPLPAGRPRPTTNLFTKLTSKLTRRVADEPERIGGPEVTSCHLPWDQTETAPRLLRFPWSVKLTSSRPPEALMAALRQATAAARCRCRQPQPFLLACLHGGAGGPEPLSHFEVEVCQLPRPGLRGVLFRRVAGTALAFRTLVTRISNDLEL
Settings: at 0.1 µM
observation_type: inhibition
Give the figure together with its unit, number first.

Some entries whose results are on file:
Problem: Recorded inhibition of `NC(=O)c1cccc(Nc2nccc(Nc3cccc4[nH]ncc34)n2)c1` , please.
Result: 1.34%

Problem: State the recorded inhibition for this entry: `COC(=O)Nc1nc2cc(Oc3ccc(NC(=O)Nc4cccc(C(=O)O)c4)cc3)ccc2[nH]1`
Result: -0.3%

Problem: For the molecule `O=C1Nc2ccc(C(=O)c3ccco3)cc2C1=Cc1cc(Cl)c(O)c(Cl)c1` , what inhibition is on record?
Result: 1.71%

Then this molecule:
Problem: Which inhibition is reported for this molecule? CC1=C(C(=O)Nc2ccc3[nH]ncc3c2)C(c2ccc3ccccc3c2)CC(=O)N1 (stereo not drawn)
Result: 0.19%

* * *

Target: MAP kinase-activated protein kinase 2 (Homo sapiens) (UniProt P49137);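 further: figures are mean inhibition values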
Sequence (P49137 whole entry, looked up): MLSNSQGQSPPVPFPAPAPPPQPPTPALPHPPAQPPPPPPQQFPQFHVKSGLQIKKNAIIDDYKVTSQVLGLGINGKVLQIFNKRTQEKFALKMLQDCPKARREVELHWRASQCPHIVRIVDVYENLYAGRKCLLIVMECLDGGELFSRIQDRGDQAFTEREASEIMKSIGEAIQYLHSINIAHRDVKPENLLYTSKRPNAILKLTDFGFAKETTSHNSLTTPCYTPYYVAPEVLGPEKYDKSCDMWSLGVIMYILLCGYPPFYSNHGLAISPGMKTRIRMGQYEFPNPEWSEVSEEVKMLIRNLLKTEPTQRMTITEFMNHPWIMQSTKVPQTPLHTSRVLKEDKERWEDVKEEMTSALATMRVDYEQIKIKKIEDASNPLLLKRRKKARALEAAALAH
Conditions: at 0.1 µM
observation_type: inhibition (%)
Only the number, expressed in %, is required.

Problem: Entry CC1=C(C(=O)Nc2ccc3[nH]ncc3c2)C(c2ccc(F)cc2)NC(=O)N1 (configuration not stated) : reported inhibition = ?
Result: 1.48

Problem: Item under review: `Cc1nnc(-c2ccc(C)c(-c3ccc(C(=O)Nc4cccc(C#N)c4)cc3)c2)o1` . Reported inhibition?
Result: 1.02

Problem: Any idea what its inhibition is? The compound is `COc1cc2ncn(-c3cc(OCc4ccccc4C(F)(F)F)c(C(N)=O)s3)c2cc1OC`
Result: 2.27

Problem: Which measured inhibition value corresponds to `COc1cc(C)c(NC(=O)CN(C)C)cc1Nc1nc(Nc2cccc(F)c2C(N)=O)c2cc[nH]c2n1` ?
Result: 0.89

Problem: Recorded inhibition for `Nc1nc(-c2ccccn2)c(-c2ccc3ncccc3n2)s1` , please?
Result: 2.05

Problem: Sample `COc1ccccc1Nc1ncc(-c2ccccc2)o1` — what was its inhibition?
Result: -0.33

***
Problem: Value lookup for inhibition; key = `CS(=O)(=O)CCNCc1ccc(-c2ccc3ncnc(Nc4ccc(OCc5ccccc5)c(Cl)c4)c3c2)o1`
Result: -3.32

Problem: inhibition lookup needed for `Fc1cccc(COc2ccc(Nc3ncnc4sc(-c5cccs5)cc34)cc2Cl)c1` , thanks.
Result: -2.05

Problem: So what does the record say about inhibition for `COc1cc2ncn(-c3cc(O[C@H](C)c4ccccc4Cl)c(C(N)=O)s3)c2cc1OC` ?
Result: -0.8

* * *

Molecular target: Testis-specific serine/threonine-protein kinase 2 (Homo sapiens) (UniProt Q96PF2);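 further: values are mean inhibition of TSSK2 activity from the GSK PKIS profiling panel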
Sequence (Q96PF2 whole entry): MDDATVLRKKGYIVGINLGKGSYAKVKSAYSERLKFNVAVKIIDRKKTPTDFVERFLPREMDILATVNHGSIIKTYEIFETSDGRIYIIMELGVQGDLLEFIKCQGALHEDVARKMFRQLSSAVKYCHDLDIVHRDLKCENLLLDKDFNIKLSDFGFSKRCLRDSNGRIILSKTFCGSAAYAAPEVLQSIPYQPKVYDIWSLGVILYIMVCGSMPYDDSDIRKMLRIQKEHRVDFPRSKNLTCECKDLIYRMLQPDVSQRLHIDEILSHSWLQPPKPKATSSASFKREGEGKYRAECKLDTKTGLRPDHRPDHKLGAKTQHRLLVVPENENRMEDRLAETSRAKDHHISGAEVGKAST
Conditions: at 0.1 µM
A collection of molecules and their measured inhibition
Reply numerically in %, unit not repeated.

Sample records with inhibition:
Problem: Report inhibition for `Nc1nc(-c2ccccn2)c(-c2ccc3ncccc3n2)s1` please.
Result: 0.45

Problem: // query inhibition value for entry `CCn1c(-c2nonc2N)nc2cncc(C(=O)N3CC[C@H](N)C3)c21`
Result: 3.56

Problem: Query (molecule): `Cc1ccc(C(=O)NC2CCCCC2)cc1-c1ccc(C(=O)NCC2CC2)cc1` ; field requested: inhibition
Result: -0.17

Problem: Which inhibition reading was recorded for the molecule `O=C1NC(=O)C(c2cccc(Cl)c2)=C1Nc1ccc(O)c(Cl)c1` ?
Result: -0.57

Problem: Please report the recorded inhibition for `COc1ccc(-c2coc3ncnc(N)c23)cc1` .
Result: 1.1

Problem: Request the reported inhibition associated with `COc1cc(C=NNc2ncnc3c2cnn3-c2ccccc2)ccc1O`
Result: 1.3

Others:
Problem: Consider the molecule shown here: `CCc1cccc(NC(=O)Nc2ccc(Oc3ccc4nc(NC(=O)OC)[nH]c4c3)cc2)c1` What is its recorded inhibition?
Result: 0.77

Problem: Consider the molecule COc1ccc2cc(-c3c(-c4ccncc4)nc(-c4ccc([S+](C)[O-])cc4)n3C)ccc2c1 (stereo not given) and give its measured inhibition.
Result: -0.32

Problem: Looking for the measured inhibition of `CC(C)=Cc1cccc2c1/C(=N/Nc1ccc(S(N)(=O)=O)cc1)C(=O)N2` , can you help?
Result: 0.49

Problem: May I ask what inhibition has been recorded for `Cc1nn(C)c2cc(N(C)c3ccnc(Nc4cccc(S(N)(=O)=O)c4)n3)ccc12` ?
Result: 1.61

Problem: For the molecule shown here, `CCn1c(-c2nonc2N)nc2cncc(C(=O)N3CCNCC3)c21` , give the reported inhibition.
Result: 2.4

Problem: I have this molecule here, `NC(=O)c1ccc(-c2nc(-c3ccccn3)c(-c3ccc4c(c3)OCO4)[nH]2)cc1` , and I need its recorded inhibition.
Result: 1.76

Problem: Requested field: inhibition. Item: `CCCN1CCC(Oc2cc(Nc3nc(Nc4cccc(F)c4C(N)=O)c4cc[nH]c4n3)c(OC)cc2Cl)CC1`
Result: 7.49

Problem: Need inhibition, item `CN1CCC(C(=O)Nc2n[nH]c3nnc(-c4ccccc4)cc23)CC1`
Result: 3.85

Problem: What inhibition value was documented for this molecule, `Cc1cc(O)cc(C)c1/C=C/c1cncc(-c2nn[nH]n2)c1` ?
Result: 1.18

The measurements presented in this section are drawn from ChEMBL document CHEMBL1961873.
